I'd appreciate it if you could supply aptamer binding inhibition values for the items below.
experimental-system: Beta-adrenergic receptor kinase 1 (Homo sapiens)
test-protocol: GRK2 binders displacing RNA aptamer, biochemical, validation, human GRK2, bead flow cytometry (AID 488806)
condition-context: bead-bound GRK2, FAM-aptamer displacement, at 10 µM, stronger effect = higher value
Activity calls are given as the source filed them.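 The calls were made as follows: active = aptamer binding inhibition above 30%, about 3 SD of noise from non-fluorescent compounds; inactive = inhibition at or below 30%.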

Some compounds with known aptamer binding inhibition results, for comparison:
QUERY: State its aptamer binding inhibition for this compound: `CC1(C)O[C@@H]2C[C@H]3[C@@H]4C[C@H](F)C5=CC(=O)C=C[C@]5(C)[C@@]4(F)[C@@H](O)C[C@]3(C)[C@]2(C(=O)CO)O1`
RESULT: 1% (inactive)

QUERY: Annotate the compound `Cc1nc2c(c3c1[nH]c1ccccc13)C(=O)CC(C)(C)C2` with its measured aptamer binding inhibition.
RESULT: 3% (inactive)

Go through the list and state aptamer binding inhibition for each entry.
1. COc1ccc(OC(C)C(=O)Nc2ccccc2F)cc1 (stereo not drawn)
2. CCCC(=O)O[C@]1(C(=O)COC(C)=O)CC[C@H]2[C@@H]3C[C@H](F)C4=CC(=O)C=C[C@]4(C)[C@@]3(F)[C@@H](O)C[C@@]21C
3. Cc1nc2ccccn2c(=O)c1CCN1CCC(C(=O)c2ccc(F)cc2)CC1
4. CC1(C)C(=O)OC(c2cccs2)C2(CCCCC2)C1=O (stereo not drawn)
5. COc1ccc(C2CC(c3c(O)cc(C)oc3=O)=NCCS2)c(OC)c1 (stereo not drawn)
6. Cc1nc2cc3ccccc3cc2c(=O)[nH]1

RESULT:
["0% (inactive)", "3% (inactive)", "0% (inactive)", "0% (inactive)", "1% (inactive)", "6% (inactive)"]

State recorded aptamer binding inhibition for all listed compounds.
1. COc1ccc(C2OC(=O)Cc3cc(OC)c(OC)cc32)cc1 (stereo not drawn)
2. CN1C(C(=O)Nc2ccccn2)=C(O)c2sccc2S1(=O)=O
3. Cc1cc(=O)[nH]c(=S)[nH]1
4. O=C(NCc1ccco1)/C(=C\C=C\c1ccccc1)NC(=O)c1ccccc1Br
5. COc1ccc2[nH]c3c(=O)n(/N=C/[C@H]4C(C)C=C(C)CC4C)c(=O)[nH]c3c2c1 (stereo partly drawn)

RESULT:
1. 2% (inactive)
2. -6% (inactive)
3. -9% (inactive)
4. 0% (inactive)
5. 3% (inactive)
